Source of measurements: patent US12599599B2

test system: AGS gastric cancer; assay: 24 hr growth inhibition of cell line; format: cell-based; conditions: Homo sapiens
Items are presented alongside their recorded IC50.
Numbers only here, please. The scale is µM.

**Q:** API: value(readout=IC50, system=AGS gastric cancer) for record CCN(CC)CCCCNC(=O)c1ccccc1SC/C=C(\C)CC/C=C(\C)CCC=C(C)C [Compound 5]
**A:** 14

Field: next compound
**Q:** API: value(readout=IC50, system=AGS gastric cancer) for record CCOP(=O)(NCCN1CCN(C(=O)CC2=C(C)/C(=C/c3ccc([S+](C)[O-])cc3)c3ccc(F)cc32)CC1)OCC (centres unmarked) [Compound 2]
**A:** 306

====

system: RAW264 murine macrophage; assay: 24 hr growth inhibition of cell line; type: cell-based; conditions: Mus musculus, RAW264.7, 24 h
Metric: pIC50
Please keep in mind that pIC50 is minus log10 of the molar concentration; only the number is needed.

**Q:** API: value(readout=pIC50, system=RAW264 murine macrophage) for record CCOP(=O)(NCCN1CCN(C(=O)CC2=C(C)/C(=C/c3ccc([S+](C)[O-])cc3)c3ccc(F)cc32)CC1)OCC (centres unmarked)
**A:** 3.80

Field: next molecule
**Q:** API: value(readout=pIC50, system=RAW264 murine macrophage) for record CCN(CC)CCCCNC(=O)c1ccccc1SC/C=C(\C)CC/C=C(\C)CCC=C(C)C
**A:** 5.30
